FYI, the data here is from paper PMC10134960.

Record: pKi reported on CA IX (Homo sapiens, UniProt Q16790).
pKi: −log10 of the molar value.

The cases that follow already have their pKi on record.
COc1ccc(/C(C)=N/N=C2/C(=O)N(C)c3ccc(Br)cc32)cc1S(N)(=O)=O [Compound 11c]    < 4.00
COc1ccc(/C(C)=N/N=C2/C(=O)N(Cc3ccccc3)c3ccc(Cl)cc32)cc1S(N)(=O)=O [Compound 12b]    < 4.00

Looking up COc1ccc(/C(C)=N/N=C2/C(=O)N(C)c3ccc(Cl)cc32)cc1S(N)(=O)=O [Compound 11b] , I found its pKi recorded as < 4.00

====

experimental-readout: melting point

COc1ccc(/C(C)=N/N=C2/C(=O)Nc3ccc(Br)cc32)cc1S(N)(=O)=O    274 to 276 °C
COc1ccc(/C(C)=N/N=C2/C(=O)N(Cc3ccccc3)c3ccc(Cl)cc32)cc1S(N)(=O)=O [Compound 12b]    245 to 247 °C

Entry under test: COc1ccc2c(c1)/C(=N\N=C(/C)c1ccc(OC)c(S(N)(=O)=O)c1)C(=O)N2 . Its melting point was 264 to 266 °C

// melting point lookup, compound = COc1ccc(/C(C)=N/N=C2/C(=O)Nc3c(Cl)cccc32)cc1S(N)(=O)=O , result: 278 to 280 °C

response.value for COc1ccc(/C(C)=N/N=C2/C(=O)Nc3ccc(Cl)cc32)cc1S(N)(=O)=O (field: melting point) = 268 to 270 °C

get_value(item= COc1ccc(/C(C)=N/N=C2/C(=O)N(Cc3ccccc3)c3ccc(Br)cc32)cc1S(N)(=O)=O [Compound 12c] , readout=melting point) returns 260 to 262 °C

Given item COc1ccc(/C(C)=N/N=C2/C(=O)N(Cc3ccccc3)c3ccccc32)cc1S(N)(=O)=O [Compound 12a] , the value recorded as its melting point is 235 to 237 °C

melting point for COc1ccc(/C(C)=N/N=C2/C(=O)N(C)c3ccc(Cl)cc32)cc1S(N)(=O)=O [Compound 11b] is 248 to 250 °C

====

Below are pIC50 values measured for VEGFR-2 (Homo sapiens, UniProt P35968).
FYI, pIC50 means -log10 of a concentration in mol per litre.

COc1ccc(/C(C)=N/N=C2/C(=O)N(C)c3ccc(Cl)cc32)cc1S(N)(=O)=O [Compound 11b]    7.20
COc1ccc(/C(C)=N/N=C2/C(=O)N(Cc3ccccc3)c3ccc(Cl)cc32)cc1S(N)(=O)=O [Compound 12b]    7.64

Moving on to another compound below.
# pIC50 (compound: COc1ccc(/C(C)=N/N=C2/C(=O)N(C)c3ccc(Br)cc32)cc1S(N)(=O)=O [Compound 11c] ) is 7.52
